B1: Pistol ribozyme (parent)
chain: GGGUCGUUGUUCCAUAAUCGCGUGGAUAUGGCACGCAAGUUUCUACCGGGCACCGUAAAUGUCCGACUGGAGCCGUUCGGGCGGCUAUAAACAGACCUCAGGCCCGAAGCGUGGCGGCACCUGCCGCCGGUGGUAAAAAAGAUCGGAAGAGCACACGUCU

variants of: B1; test: aptazyme ON/OFF ratio, guanine; higher = stronger switching; co-transcriptional cleavage with and without guanine
quantity.kind: aptazyme ON/OFF ratio

The variant listed as U7A U8C U10C C12G shows aptazyme ON/OFF ratio equal to 1.46

***
The variant listed as U7C U10C C12U shows aptazyme ON/OFF ratio equal to 3.58

The variant listed as U7G U8C U10G U11A C13U shows aptazyme ON/OFF ratio equal to 1.19

The variant listed as U7C U8G G9U C13A shows aptazyme ON/OFF ratio equal to 1.31

The variant listed as U7A U8C G9C U10G U11G C12U C13A shows aptazyme ON/OFF ratio equal to 1.07

The variant listed as U7G G9U U11G C12G C13A shows aptazyme ON/OFF ratio equal to 1.19
